- System: LOX IMVI melanoma
- ASSAY SUMMARY: NCI-60 one-dose screen, 48 h (100 = growth as untreated, 0 = no growth, -100 = all killed)
- SETTINGS: 10 µM unless noted
Compounds without any hit were thinned out: in the full panel of roughly 83,000, 20% have a hit. Calls of active or inactive are those of the source. Rule for the calls: active = growth percent below 10; inactive = the rest.
Listed compounds paired with reported growth

- COMPOUND: "COc1ccc2ccccc2c1/C=C1\\SC(=Nc2ccc(O)cc2)NC1=O"
  growth: "-3.89% (active)"
- COMPOUND: "COc1ccc(C2=NN(C(=O)[C@H]3[C@@H](c4ccco4)c4sc(=O)[nH]c4S[C@@H]3C)C(c3ccc4ccccc4c3)C2)cc1 (some centres not stated)"
  growth: "31.3% (inactive)"
- COMPOUND: "O=C(Cc1c(-c2cccc([N+](=O)[O-])c2)n(-c2ncnc3c2c(-c2ccccc2)c(-c2ccccc2)n3Cc2ccccc2)[nH]c1=O)c1ccc(Cl)c(Cl)c1"
  growth: "15.7% (inactive)"
- COMPOUND: "Cn1cc(-c2cc(N)n3nc(-c4c[nH]c5ccc(F)cc45)cc3n2)c2cc(Br)cnc21"
  growth: "-56.8% (active)"
- COMPOUND: "O=C(N/N=C/c1ccc(Cl)o1)c1[nH]c2ccc(Br)cc2c1-c1ccccc1"
  growth: "-58.2% (active)"
- COMPOUND: "Cc1cccc(/C=C/c2ccc(NC(=S)NCCCCN(C)C)cc2)c1"
  growth: "-99.1% (active)"
- COMPOUND: "COc1ccc2c(c1)c(-c1cc(N)n3nc(-c4c[nH]c5ccccc45)cc3n1)cn2C"
  growth: "-86.1% (active)"
- COMPOUND: "O=C(CSc1nc2sc3c(c2c(=O)n1-c1ccc(Cl)cc1)CCCC3)N/N=C/C=C/c1ccccc1"
  growth: "31.7% (inactive)"
- COMPOUND: "O=C(CSc1nnc(-c2ccc(-c3nc4ccc(Cl)cc4[nH]3)cc2)o1)Nc1ccc(Br)cc1"
  growth: "-100% (active)"
- COMPOUND: "COc1ccc(C(=O)c2c(N)c(C#N)cn2-c2ccc([N+](=O)[O-])cc2)cc1"
  growth: "96.3% (inactive)"
- COMPOUND: "COc1ccc2[nH]cc(-c3cc4nc(-c5cn(C)c6ncc(Br)cc56)cc(N)n4n3)c2c1"
  growth: "-97.9% (active)"
- COMPOUND: "COc1ccc(-n2c(NC(=O)N3CCN(C)CC3)c(C#N)c3ccccc32)cc1"
  growth: "9.35% (active)"
- COMPOUND: "C#CCN(C)CCCOc1ccc(N(C)C(=O)c2cc(C(C)C)c(O)cc2O)cc1Cl"
  growth: "-89.2% (active)"
- COMPOUND: "Cc1ccc(-c2cc(C(=O)N=Nc3c(O)[nH]c4ccc(F)cc34)c3ccccc3n2)cc1"
  growth: "1.93% (active)"
- COMPOUND: "COc1ccc(-c2cc(C(=O)OCc3ccc(Br)cc3)nn2-c2ccc(S(C)(=O)=O)cc2)cc1OC"
  growth: "75.3% (inactive)"
- COMPOUND: "O=C1c2cccc3c(N4CCN(c5ccccc5)CC4)ccc(c23)C(=O)N1c1cccc(-c2nn(-c3ccccc3)cc2-c2nc3ccccc3s2)c1"
  growth: "94.5% (inactive)"
- COMPOUND: "Cc1ccc(Cl)cc1NC(=O)Nc1nc2ccc([N+](=O)[O-])cc2s1"
  growth: "-21.1% (active)"
- COMPOUND: "O=C(CSc1nnc(-c2ccc(-c3nc4ccccc4[nH]3)cc2)o1)Nc1ccccc1"
  growth: "3.54% (active)"
- COMPOUND: "Cc1ccccc1NC(=O)c1cccc(NC(=O)CCl)c1"
  growth: "-47.5% (active)"
- COMPOUND: "CC1=C(C(=O)Nc2ccccc2)C(c2cccc3ccccc23)n2c(nc3ccccc32)N1 (configuration not stated)"
  growth: "53.5% (inactive)"
- COMPOUND: "COc1ccc(N=Nc2c(N)nn3c(-c4cc5cc(Br)ccc5oc4=O)ccnc23)cc1"
  growth: "26.4% (inactive)"
- COMPOUND: "CN1CCN(C(=O)CCN(C(=O)Oc2cc3c(c4ccccc24)[C@H](CCl)CN3C(=O)c2cc3cc(OCCCN4CCC4)ccc3[nH]2)[C@H]2CCSSC2)CC1"
  growth: "-71.8% (active)"
- COMPOUND: "COc1ccc(-c2cc(-c3cc(C(C)C)c(O)cc3C)nn2-c2ccc(S(N)(=O)=O)cc2)cc1"
  growth: "22.6% (inactive)"
- COMPOUND: "Cc1cc(C(NC(=O)CCCCCNc2cccc3c2C(=O)N(C2CCC(=O)CC2=O)C3=O)c2cccc(N(C)C)c2)c(O)c2ncccc12 (configuration not stated)"
  growth: "0.535% (active)"
- COMPOUND: "OC(c1ccccc1)(c1ccccc1)C1CCN(c2ccc3nnc(Cl)n3n2)CC1"
  growth: "38.3% (inactive)"
- COMPOUND: "Oc1ccc(Cl)c(Nc2nc(SCCN3CCOCC3)nc3c2cnn3CC(Cl)c2ccc(Br)cc2)c1 (configuration not stated)"
  growth: "-59.3% (active)"
- COMPOUND: "C/C(=N/O)c1ccc(NC(=O)CSc2nnc(-c3ccc(-c4nc5ccc(Cl)cc5[nH]4)cc3)o2)cc1"
  growth: "-100% (active)"

Data origin, for the record: PubChem BioAssay (NCI)
